- target-desc: HLA-A*23:01
- assay-text: IEDB peptide-MHC binding, purified MHC/direct/fluorescence; filed as Kd, often an IC50 or EC50 that approximates it; bounds were set here for any values at or beyond the usual limits of such assays
- study-conditions: source organism: Ravn virus - Ravn, Kenya, 1987
reported-metric: Kd

Ask: # lookup: Kd of `HSGFIYFGK`
Reply: ≥ 20 µM

---

- target-desc: HLA-B*07:02
- assay-text: IEDB peptide-MHC binding, purified MHC/direct/fluorescence; filed as Kd, often an IC50 or EC50 that approximates it; bounds were set here for any values at or beyond the usual limits of such assays
- study-conditions: source organism: Homo sapiens
reported-metric: pKd
Convention used: pKd is expressed as -log10 of the molar concentration.

Example results:
residue_string=KVRDRNFQL result_number=8.06
residue_string=LLWKTWYPC result_number=4.84

Ask: # lookup: pKd of `ISLICGHSY`
Reply: 4.76
